pIC50 reference
system: HEK293; assay: Antiproliferative activity against HEK293 cells assessed as inhibition of cell proliferation incubated for 18 hrs followed by MTT addition for 4 hrs by MTT assay; assay type: cell-based; details: Homo sapiens
Notebook: values listed as pIC50 are -log10 of the concentration (mol/L).

Worked set:
INSERT INTO results (molecule, value_type, val) VALUES
  ('CCCCCCCCOP(=O)(O)OCCSC(=S)N1CCCC1', 'pIC50', 4.55),
  ('CCCCCCCCOP(=O)(O)OCCSC(=S)N1CCCCC1', 'pIC50', 4.16),
  ('CCCOP(=O)(O)OCCSC(=S)N1CCN(C)CC1', 'pIC50', 4.40);

// next entry
Exercise: What value of pIC50 has been recorded for this entry: `CCCCCCCCOP(=O)(O)OCCSC(=S)N1CCN(C)CC1`
Solution: 4.07

Source listed as ChEMBL document CHEMBL3352720.
